Reference source for all entries: the supplement of paper PMC9112550

# System: Escherichia coli TOP10;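 note: peptides expressed intracellularly from a pBAD plasmid library in pooled LB shake-flask culture, induced with 0.3% L-arabinose, DNA abundance read by NGS, three biological replicates, DESeq2 with apeglm shrinkage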
# PROCEDURE SUMMARY: shrunken log2 fold change of peptide-encoding DNA abundance (4.5 h post-induction vs induction); higher = less antimicrobial activity (less host growth inhibition)
# CONDITIONS USED: time post-induction: 4.5 h; library: site-saturation at positions 5, 18, 19, 20
In this section we review reported shrunken log2 fold change values for a set of sequences.
The reply should be a number, written without any unit.

            input_sequence  experimental_result
0  RRIRLRPPRLPRPRPRPPSSPRP                 1.86

Jot down shrunken log2 fold change (Escherichia coli TOP10) of RRIRNRPPRLPRPRPRPRTSPRP . -0.0838

Report shrunken log2 fold change under test system Escherichia coli TOP10 for RRIRTRPPRLPRPRPRPRIWPRP . 0.104

Report shrunken log2 fold change on Escherichia coli TOP10 for this entry: RRIRWRPPRLPRPRPRPMDWPRP 0.482

Give shrunken log2 fold change for this entry on Escherichia coli TOP10: RRIRNRPPRLPRPRPRPGIRPRP 0.0989

State recorded shrunken log2 fold change with Escherichia coli TOP10, entry RRIRSRPPRLPRPRPRPMLNPRP , no comment. -0.198

Provide the reported shrunken log2 fold change (system: Escherichia coli TOP10) for RRIRQRPPRLPRPRPRPWYRPRP -0.49

Report shrunken log2 fold change under test system Escherichia coli TOP10 for RRIRNRPPRLPRPRPRPHTSPRP . -0.268

Please tell me the measured shrunken log2 fold change for RRIRWRPPRLPRPRPRPSIQPRP ; system: Escherichia coli TOP10. -0.0487

Output reported shrunken log2 fold change of the sequence RRIRFRPPRLPRPRPRPRGKPRP on Escherichia coli TOP10. 0.734

Retrieve shrunken log2 fold change on Escherichia coli TOP10; query RRIRARPPRLPRPRPRPFALPRP 0.185

System Escherichia coli TOP10. Read-out shrunken log2 fold change. Item RRIRQRPPRLPRPRPRPRPNPRP . Report value. 0.183

Fill in shrunken log2 fold change for RRIRHRPPRLPRPRPRPIHEPRP tested with Escherichia coli TOP10. -0.153

Name the recorded shrunken log2 fold change of RRIRGRPPRLPRPRPRPGIVPRP , assay system Escherichia coli TOP10. 0.957

Send back Escherichia coli TOP10 shrunken log2 fold change of RRIRYRPPRLPRPRPRPYCHPRP only. -0.435

Under Escherichia coli TOP10, report shrunken log2 fold change for RRIRDRPPRLPRPRPRPYNHPRP -0.704

Give shrunken log2 fold change for RRIRARPPRLPRPRPRPSICPRP tested on Escherichia coli TOP10. 0.154

# return shrunken log2 fold change of RRIRYRPPRLPRPRPRPQFPPRP (system: Escherichia coli TOP10) -0.0877

Fill in: shrunken log2 fold change on Escherichia coli TOP10, entry RRIRYRPPRLPRPRPRPPYYPRP -0.214

Report value only: shrunken log2 fold change, Escherichia coli TOP10, RRIRFRPPRLPRPRPRPTPRPRP 0.803

Provide shrunken log2 fold change, system Escherichia coli TOP10, entry RRIRGRPPRLPRPRPRPDIWPRP 0.598

State measured shrunken log2 fold change of the sequence RRIRYRPPRLPRPRPRPSTDPRP with Escherichia coli TOP10. -0.011
